FYI, the data here is from PubChem BioAssay AID1159580.

Each item that follows carries a reported normalized growth.
# assay-comment: chemical genetic growth profiling, strain panel (AID 1159580);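 note: tested at 20 µM; growth read once vehicle control cultures reached saturation at 30 °C; 1 = growth at the plate median or of vehicle wells; lower values mean less growth of the strain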
# condition-notes: S. cerevisiae deletion strains, growth OD, locus YLR039C, strain RIC1, hits give low values
Hit rate of the full screen: of about 5,500 compounds, about 2,000 (36%) were called active. Inconclusive results (about 18%) are left out. Some of the results follow.
Answer as a number with no unit attached.

Answered cases to consult:
1) COc1cc(C(C)=O)cc(OC)c1O :: 1.02
2) CCOC(=O)[C@H](CCc1ccccc1)N[C@@H](C)C(=O)N1CCC[C@H]1C(=O)O :: 1
3) CC(=O)Oc1ccc(C(c2ccc(OC(C)=O)cc2)c2ccccn2)cc1 :: 0.986
4) COCc1cc(=O)n2[nH]c(C(C)(C)C)cc2n1 :: 1.02
5) Nc1ccc(C(=O)O)cc1 :: 0.996

Problem: Consider the molecule shown here: CC(C)CCCC(C)[C@H]1CCC2C3CC=C4C[C@@H](O)CC[C@]4(C)C3CC[C@@]21C (some centres not stated) What is its recorded normalized growth?
Result: 1.02

Problem: Next entry: `O=C(O)CCCNCc1cccc2ccccc12`
Result: 1
